System: Lambsquarter (Chenopodium album)
Assay: Postemergence herbicidal activity, greenhouse spray
Assay type: in vivo
Conditions: Chenopodium album, post-emergence, 336 h; Table 1; rate 500 ppm; visual score after 2 weeks; read-out: Post-emergent % control CHEAL
Method: When required to ensure good germination and healthy plants, a fungicide treatment and/or other chemical or physical treatment was applied. […] A weighed amount, determined by the highest rate to be tested, of each test compound was placed in a 20 mL glass vial and was dissolved in 4 mL of a 97:3 v/v (volume/volume) mixture of acetone and dimethyl sulfoxide (DMSO) to obtain concentrated stock solutions. […]
Consider the following compounds; for each one, report its pest or weed control at 500 ppm.
Note: unit % is implicit; provide only the numeric part.

Exercise: Return reported pest or weed control at 500 ppm; argument: Cc1ccc(-c2nc(C(=O)O)c(F)c(N)c2F)cc1 [Compound 203]
Solution: 100

Exercise: What would you report for COC(=O)c1nc(-c2ccccc2F)cc(N)c1Cl [Compound 33] ?
Solution: 100

Exercise: Please do the same for COC(=O)c1nc(-c2ccc(F)cc2)cc(N)c1Cl [Compound 43] as well.
Solution: 100

Exercise: Do the same for COC(=O)c1nc(-c2ccc(Cl)cc2F)cc(NC(C)=O)c1Cl [Compound 52] please
Solution: 100

Exercise: Next up: Nc1c(F)c(C(=O)O)nc(-c2ccccc2Cl)c1F [Compound 202]
Solution: 100

Exercise: Here is the next compound: COC(=O)c1nc(-c2ccc3c(c2)OCO3)cc(N)c1Cl [Compound 29]
Solution: 100

Exercise: Also Cc1cc(-c2cc(N)c(Cl)c(C(=O)O)n2)ccc1Cl [Compound 149] , if possible.
Solution: 100

Exercise: // query: COC(=O)c1nc(-c2ccc3ccccc3c2)cc(N)c1Cl [Compound 47]
Solution: 90

Exercise: What would you report for COC(=O)c1nc(-c2ccc(F)cc2Cl)cc(N)c1Cl [Compound 58] ?
Solution: 100

Exercise: Entry to check: Cc1ccc(-c2cc(N)c(Cl)c(C(=O)O)n2)c(F)c1 [Compound 158]
Solution: 100

Exercise: Then what about the compound Nc1cc(-c2ccc3c(c2)OCO3)nc(C(=O)O)c1Cl [Compound 153] ?
Solution: 98

Exercise: And for Nc1c(Cl)c(C(=O)O)nc(-c2ccc(Cl)cc2)c1Cl [Compound 198] ?
Solution: 100

Exercise: What about this compound? COC(=O)c1nc(-c2ccc(C(F)(F)F)cc2)c(F)c(N)c1F [Compound 94]
Solution: 100

Exercise: Ok, now COC(=O)c1nc(-c2ccc(Cl)cc2F)cc(N)c1Cl [Compound 59]
Solution: 100

Exercise: Try COC(=O)c1nc(-c2ccc(C)c(C)c2)cc(N)c1Cl [Compound 12] next.
Solution: 95

Exercise: Next record, please: Nc1cc(-c2ccc(Cl)c(Cl)c2)nc(C(=O)O)c1Cl [Compound 150]
Solution: 100

Exercise: Now consider COC(=O)c1nc(-c2ccc(Cl)cc2)c(F)c(N)c1F [Compound 90] and answer again.
Solution: 100

Exercise: Now the compound Nc1c(F)c(-c2ccc(Cl)cc2)nc(C(=O)O)c1Cl [Compound 173]
Solution: 100

Exercise: Okay, and COC(=O)c1nc(-c2ccc(F)c(Cl)c2)cc(N)c1Cl [Compound 39] ?
Solution: 100

Exercise: Another compound to look at: Nc1c(F)c(C(=O)O)nc(-c2ccc(Cl)cc2F)c1F [Compound 206]
Solution: 95

Exercise: Now consider COC(=O)c1nc(-c2ccc(C)cc2)c(F)c(N)c1F [Compound 91] .
Solution: 100

====

Give melting point for every item shown.

Exercise: Find the recorded melting point belonging to `COC(=O)c1nc(-c2ccc(OC(F)(F)F)cc2)cc(N)c1Cl` and report it.
Solution: 119 to 120 °C

Exercise: Next entry: `Nc1c(Cl)c(C(=O)O)nc(-c2cccs2)c1Cl`
Solution: 144 °C

Exercise: Same for `Nc1cc(-c2c(F)cccc2F)nc(C(=O)O)c1Cl`
Solution: 165 to 166 °C

Exercise: Subsequent entry: `COC(=O)c1nc(-c2ccc(Cl)cc2F)cc(NC(C)=O)c1Cl`
Solution: 134 to 135 °C

Exercise: Another compound to look at: `COC(=O)c1nc(-c2ccc3c(c2)OCO3)c(F)c(N)c1F`
Solution: 189 to 190 °C

====

Could you please report measured pest or weed control at 560 ppm for the items listed next?
Test system: Crabgrass(large) (Digitaria sanguinalis)
Experiment: Preemergence herbicidal activity, soil spray
Assay type: in vivo
Conditions: Digitaria sanguinalis, pre-emergence, 504 h; Table 5; rate 560 ppm; visual score after 3 weeks; read-out: Pre-emergent % control DIGSA
Respond numerically; units are % and should not be typed.

Exercise: Given the molecule `COC(=O)c1nc(-c2ccc(C)c(C)c2)cc(N)c1Cl` , what is its reported pest or weed control at 560 ppm?
Solution: 40

Exercise: Same lookup for `Cc1cccc(-c2cc(N)c(Cl)c(C(=O)O)n2)c1` , please.
Solution: 100

Exercise: Queued: `COC(=O)c1nc(-c2ccc(Cl)cc2Cl)cc(N)c1Cl`
Solution: 90

Exercise: Subsequent entry: `COC(=O)c1nc(-c2ccc(C)cc2)c(F)c(N)c1F`
Solution: 100

Exercise: Same again, this time with `COC(=O)c1nc(-c2ccc(OC)cc2)cc(N)c1Cl`
Solution: 100

====

Test system: Barnyardgrass (Echinochloa crus-galli)
Assay: Postemergence herbicidal activity, greenhouse spray
Assay type: in vivo
Conditions: Echinochloa crus-galli, post-emergence, 336 h, Table 1; rate 250 ppm; visual score after 2 weeks; read-out: Post-emergent % control ECHCG
Please provide measured pest or weed control at 250 ppm for the entries that follow.

Exercise: State the recorded pest or weed control at 250 ppm for this entry: `COC(=O)c1nc(-c2ccc3c(c2)OCO3)c(F)c(N)c1Cl`
Solution: 98%

Exercise: Follow-up entry: `Nc1c(F)c(-c2ccc3c(c2)CCO3)nc(C(=O)O)c1Cl`
Solution: 90%

Exercise: Do the same for `COC(=O)c1nc(-c2ccc(Cl)cc2)cc(N)c1Cl` please
Solution: 80%

Exercise: Could you do the same for `Nc1cc(-c2cc3ccccc3o2)nc(C(=O)O)c1Cl` , please?
Solution: 80%

Exercise: And what about the compound `Nc1cc(-c2ccc(Cl)cc2Cl)nc(C(=O)O)c1Cl` ?
Solution: 85%

====

Test system: Corn (#14 3377) (Zea mays)
Assay: Postemergence herbicidal activity, selectivity to corn
Format: in vivo
Details: post-emergence, 336 h, Table 4, rate 62.5 (unit inferred), crop injury, read-out: Post-emergent % control ZEAMX
MEASURE: pest or weed control at 62.5 µg/mL
Write the numeric value and append its unit.

Exercise: Bench note: what pest or weed control at 62.5 µg/mL did `COC(=O)c1nc(-c2ccc(F)cc2)cc(N)c1Cl` show?
Solution: 0%

Exercise: Proceed to `COC(=O)c1nc(-c2ccc(F)cc2Cl)cc(N)c1Cl`
Solution: 0%

Exercise: Now this one: `Cc1cc(Cl)ccc1-c1cc(N)c(Cl)c(C(=O)O)n1`
Solution: 0%

Exercise: Try this compound next: `Nc1cc(-c2ccc(Cl)cc2Cl)nc(C(=O)O)c1Cl`
Solution: 0%

Exercise: Next entry: `COC(=O)c1nc(-c2ccc(C)c(C)c2)cc(N)c1Cl`
Solution: 10%

Exercise: Can you check `COC(=O)c1nc(-c2ccc(Cl)cc2)cc(NC(C)=O)c1Cl` next?
Solution: 10%

Exercise: Again, but for `COC(=O)c1nc(-c2ccc(Cl)cc2C)cc(N)c1Cl`
Solution: 0%

Exercise: What about `COC(=O)c1nc(-c2cccc(C)c2)cc(N)c1Cl` ?
Solution: 0%

====

Tested on: Cocklebur (Xanthium strumarium)
Assay: Postemergence herbicidal activity, greenhouse spray
Format: in vivo
Conditions: Xanthium strumarium, post-emergence, 336 h; Table 2; rate 125 ppm; visual score after 2 weeks; read-out: Post-emergent % control XANST
MEASURE: pest or weed control at 125 ppm (%)
Write down the numeric answer in % and omit the unit.

Exercise: # query: pest or weed control at 125 ppm | item `Nc1c(F)c(-c2ccc(Cl)cc2Cl)nc(C(=O)O)c1Cl` | system: Cocklebur (Xanthium strumarium)
Solution: 100

Exercise: // next record `Nc1c(F)c(-c2ccc(Cl)cc2)nc(C(=O)O)c1Cl`
Solution: 100

Exercise: Subsequent entry: `Nc1cc(-c2ccc(Cl)c(F)c2)nc(C(=O)O)c1Cl`
Solution: 100

Exercise: What do we get for `Nc1c(F)c(-c2ccc3c(c2)OCO3)nc(C(=O)O)c1Cl` ?
Solution: 100

Exercise: Follow-up item: `Nc1c(F)c(-c2ccc(Cl)cc2F)nc(C(=O)O)c1Cl`
Solution: 90

====

So I've got a bunch of compounds here, and I need their melting point values.

Exercise: # melting point lookup, item `COC(=O)c1nc(-c2ccc(C)cc2)c(F)c(N)c1F`
Solution: 145 to 146 °C

Exercise: // same read-out, input: `CCOC(=O)c1nc(-c2ccc(Cl)cc2)c(F)c(N)c1Cl`
Solution: 88 to 89 °C

Exercise: Same question, `COC(=O)c1nc(-c2cc(Cl)c(C)cc2F)cc(NC(C)=O)c1Cl` this time
Solution: 187 to 195 °C

Exercise: Here is the next compound: `Nc1cc(-c2ccccc2)nc(C(=O)O)c1Cl`
Solution: 180 to 181 °C (dec.)

Exercise: Query `Cc1ccc(-c2cc(N)c(Cl)c(C(=O)O)n2)cc1` next
Solution: 166 to 167 °C

Exercise: What do you have for `COC(=O)c1nc(-c2ccc(OC)c(OC)c2)cc(N)c1Cl` ?
Solution: 126 to 127 °C

Exercise: // next record `Nc1cc(-c2cnccn2)nc(C(=O)O)c1Cl`
Solution: 172 to 173 °C

Exercise: Continue with `COc1ncc(-c2cc(N)c(Cl)c(C(=O)O)n2)cn1`
Solution: 153 °C

Exercise: Same question, `COCc1cc(-c2cc(N)c(Cl)c(C(=O)OC)n2)ccc1Cl` this time
Solution: 73 to 74 °C

Exercise: Same again, this time with `Nc1cc(-c2ccc(Cl)c(Cl)c2)nc(C(=O)O)c1Cl`
Solution: 185 to 186 °C

Exercise: Next up: `Nc1cc(-c2ccc3c(c2)CCO3)nc(C(=O)O)c1Cl`
Solution: 218 to 220 °C

Exercise: Please do the same for `Nc1cc(-c2cncnc2)nc(C(=O)O)c1Cl` as well.
Solution: 180 °C

Exercise: Same again, this time with `COC(=O)c1nc(-c2ccc(Cl)cc2)c(Cl)c(N)c1Cl`
Solution: 160 to 162 °C

Exercise: Do the same for `COc1ccc(-c2cc(N)c(Cl)c(C(=O)O)n2)cc1C` please
Solution: 131 °C

Exercise: Again, but for `COC(=O)c1nc(-c2cncnc2)cc(N)c1Cl`
Solution: 195 °C

Exercise: And for `COC(=O)c1nc(-c2ccc(Cl)cc2F)c(F)c(N)c1F` ?
Solution: 182 to 183 °C

Exercise: Also, `Nc1c(F)c(C(=O)O)nc(-c2ccccc2Cl)c1F` please.
Solution: 166 to 167 °C (dec.)

Exercise: Try this compound next: `COC(=O)c1nc(-c2ccco2)c(Cl)c(N)c1Cl`
Solution: 116 to 117 °C

Exercise: Repeat with `COC(=O)c1nc(-c2ccc(Cl)c(C)c2)cc(N)c1Cl`
Solution: 155 to 156 °C

Exercise: Query `Cc1ccccc1-c1cc(N)c(Cl)c(C(=O)O)n1` next
Solution: 188 to 189 °C

Exercise: Quick one: `Nc1c(F)c(C(=O)O)nc(-c2ccc(Cl)cc2F)c1F`
Solution: 155 to 156 °C

Exercise: What about `COC(=O)c1nc(-c2ccc(C)cc2)cc(N)c1Cl` ?
Solution: 111 to 113 °C

Exercise: Again, but for `COC(=O)c1nc(-c2ccc3c(c2)CCC3)cc(N)c1Cl`
Solution: 165 to 166 °C

Exercise: Please do the same for `COC(=O)c1nc(-c2cccs2)c(Cl)c(N)c1Cl` as well.
Solution: 132 °C

Exercise: Try `Nc1cc(-c2ccc(F)c(Cl)c2)nc(C(=O)O)c1Cl` next.
Solution: 183 to 184 °C

Exercise: What about `COc1ccc(-c2cc(N)c(Cl)c(C(=O)O)n2)cc1OC` ?
Solution: 182 to 183 °C

Exercise: Follow-up entry: `Nc1c(F)c(-c2ccc(Cl)nc2)nc(C(=O)O)c1Cl`
Solution: 125 °C (dec.)

Exercise: Param item: `CCc1ccc(-c2cc(N)c(Cl)c(C(=O)O)n2)cc1`
Solution: 152 °C

Exercise: Another compound to look at: `Cc1cccc(-c2cc(N)c(Cl)c(C(=O)O)n2)c1`
Solution: 173 to 175 °C

Exercise: Another compound: `Cc1ccc(-c2cc(N)c(Cl)c(C(=O)O)n2)cc1C`
Solution: 192 to 194 °C

Exercise: Would you mind doing `COC(=O)c1nc(-c2cc3ccccc3o2)cc(N)c1Cl` as well?
Solution: 182 to 183 °C

Exercise: Next record, please: `Cc1cc(Cl)ccc1-c1cc(N)c(Cl)c(C(=O)O)n1`
Solution: 153 to 154 °C

Exercise: Same again, this time with `COC(=O)c1nc(-c2cccnc2)cc(N)c1Cl`
Solution: 144 to 146 °C

Exercise: Also need `Nc1cc(-c2ccc(Cl)c(F)c2)nc(C(=O)O)c1Cl` , thanks.
Solution: 156 to 157 °C

Exercise: And for `Nc1cc(-c2ccc(F)cc2)nc(C(=O)O)c1Cl` ?
Solution: 170 to 171 °C

Exercise: Follow-up item: `Nc1c(F)c(-c2ccc(Cl)cc2Cl)nc(C(=O)O)c1Cl`
Solution: 152 °C

Exercise: // query: `Nc1cc(-c2ccc(Cl)nc2)nc(C(=O)O)c1Cl`
Solution: 110 to 114 °C

Exercise: Now consider `Nc1cc(-c2ccc(Cl)c(C(F)(F)F)c2)nc(C(=O)O)c1Cl` .
Solution: 176 °C

Exercise: Next: `COC(=O)c1nc(-c2ccc(Cl)cc2)c(F)c(N)c1F`
Solution: 165 to 166 °C

Exercise: Try `COC(=O)c1nc(-c2ccc(OC)cc2)c(Cl)c(N)c1Cl` next.
Solution: 107 to 109 °C
